Value source: patent US20210045385A1

Tested on: ragweed (common ragweed, Ambrosia artemisiifolia)
Experiment: Test C postemergence, visual plant response rating
Format: in vivo
Settings: Test C, postemergence, 125 g ai/ha
MEASUREMENT KIND: Ragweed plant response rating (0 to 100 scale)
Provide a numeric answer; units are not to be included.

Input C#CCO/N=C(/c1cc(C)cc(Cl)c1)c1c(O)c(C)nn(C)c1=O . Output Ragweed plant response rating (0 to 100 scale): 90

Input CO/N=C(/c1c(O)c(Cl)nn(C)c1=O)c1ccc(F)c2ccccc12 . Output Ragweed plant response rating (0 to 100 scale): 90

Input CO/N=C(\c1cc(F)cc(C)c1F)c1c(O)c(C)nn(C)c1=O . Output Ragweed plant response rating (0 to 100 scale): 70

Input CON=C(c1cc(Cl)cc(F)c1Cl)c1c(O)c(C)nn(C)c1=O [Compound 272] . Output Ragweed plant response rating (0 to 100 scale): 80

Input C=CCO/N=C(/c1c(O)c(C)nn(C)c1=O)c1cccc2cc(Cl)ccc12 . Output Ragweed plant response rating (0 to 100 scale): 100

Input CCCCON=C(c1cc(Cl)cc(Cl)c1Cl)c1c(O)c(C)nn(C)c1=O . Output Ragweed plant response rating (0 to 100 scale): 100

Input CO/N=C(/c1cc(F)cc(F)c1C)c1c(O)c(C)nn(C)c1=O . Output Ragweed plant response rating (0 to 100 scale): 70

Input C=CCON=C(c1cc(Cl)cc(Cl)c1Cl)c1c(O)c(C)nn(C)c1=O . Output Ragweed plant response rating (0 to 100 scale): 100

Input CCCCO/N=C(\c1cc(Cl)cc(Cl)c1Cl)c1c(O)c(C)nn(C)c1=O . Output Ragweed plant response rating (0 to 100 scale): 100

Input Cc1nn(C)c(=O)c(C(=NOC(C)C)c2cc(Cl)cc(Cl)c2Cl)c1O . Output Ragweed plant response rating (0 to 100 scale): 100

Input C#CCO/N=C(\c1cccc(/C=C/Cl)c1)c1c(O)c(C)nn(C)c1=O . Output Ragweed plant response rating (0 to 100 scale): 50

Input CO/N=C(\c1cccc(/C=C\Cl)c1)c1c(O)c(C)nn(C)c1=O . Output Ragweed plant response rating (0 to 100 scale): 60

Input C#CCON=C(c1cccc(OCC(F)(F)F)c1)c1c(O)c(C)nn(C)c1=O . Output Ragweed plant response rating (0 to 100 scale): 0

Input CO/N=C(/c1cc(Cl)cc(Br)c1)c1c(O)c(C)nn(C)c1=O . Output Ragweed plant response rating (0 to 100 scale): 100

Input CON=C(c1cc(Cl)cc(Cl)c1Cl)c1c(O)c(C)nn(C)c1=O . Output Ragweed plant response rating (0 to 100 scale): 80

Input CO/N=C(\c1ccc(Cl)c(Cl)c1)c1c(O)c(C)nn(C)c1=O . Output Ragweed plant response rating (0 to 100 scale): 20

Input CON=C(c1cc(Cl)cc(F)c1Cl)c1c(O)c(C)nn(C)c1=O [Compound 271] . Output Ragweed plant response rating (0 to 100 scale): 90

Input CO/N=C(\c1c(O)c(Cl)nn(C)c1=O)c1cc(Br)cc2ccccc12 . Output Ragweed plant response rating (0 to 100 scale): 100

###

Test system: Italian ryegrass (Lolium mutiflorum)
Test: Test C preemergence, visual plant response rating
Type: in vivo
Settings: Test C, 31 g ai/ha, 0 is no effect, 100 is complete control
MEASUREMENT KIND: Ryegrass, Italian plant response rating (0 to 100 scale)
Provide a numeric answer; units are not to be included.

Value sought: Ryegrass, Italian plant response rating (0 to 100 scale), system Italian ryegrass (Lolium mutiflorum), item CO/N=C(\c1ccc(F)c(Cl)c1)c1c(O)c(C)nn(C)c1=O . Result: 0

Value sought: Ryegrass, Italian plant response rating (0 to 100 scale), system Italian ryegrass (Lolium mutiflorum), item CO/N=C(\c1cc(F)cc(C)c1F)c1c(O)c(C)nn(C)c1=O . Result: 30

Value sought: Ryegrass, Italian plant response rating (0 to 100 scale), system Italian ryegrass (Lolium mutiflorum), item CC(C)O/N=C(/c1c(O)c(Cl)nn(C)c1=O)c1cc(Br)cc2ccccc12 . Result: 0

Value sought: Ryegrass, Italian plant response rating (0 to 100 scale), system Italian ryegrass (Lolium mutiflorum), item CON=C(c1c(OC(C)=O)c(Cl)nn(C)c1=O)c1ccc(F)c2ccccc12 . Result: 0

Value sought: Ryegrass, Italian plant response rating (0 to 100 scale), system Italian ryegrass (Lolium mutiflorum), item C#CCO/N=C(/c1c(O)c(Cl)nn(C)c1=O)c1ccc(F)c2ccccc12 . Result: 20

Value sought: Ryegrass, Italian plant response rating (0 to 100 scale), system Italian ryegrass (Lolium mutiflorum), item CC(C)O/N=C(/c1c(O)c(Cl)nn(C)c1=O)c1ccc(F)c2ccccc12 . Result: 10

Value sought: Ryegrass, Italian plant response rating (0 to 100 scale), system Italian ryegrass (Lolium mutiflorum), item C#CCO/N=C(/c1cccc(/C=C\Cl)c1)c1c(O)c(C)nn(C)c1=O . Result: 0

Value sought: Ryegrass, Italian plant response rating (0 to 100 scale), system Italian ryegrass (Lolium mutiflorum), item CON=C(c1cc(Cl)cc(Cl)c1)c1c(O)c(C)nn(C)c1=O . Result: 90

Value sought: Ryegrass, Italian plant response rating (0 to 100 scale), system Italian ryegrass (Lolium mutiflorum), item CCO/N=C(/c1c(O)c(Cl)nn(C)c1=O)c1ccc(F)c2ccccc12 . Result: 30

###

Tested on: ragweed (common ragweed, Ambrosia artemisiifolia)
Assay: Test C postemergence, visual plant response rating
Format: in vivo
Conditions: Test C, postemergence, 125 g ai/ha
MEASUREMENT KIND: Ragweed plant response rating (0 to 100 scale)
Provide a numeric answer; units are not to be included.

Input Cc1nn(C)c(=O)c(/C(=N/OCCO)c2cccc3cc(Cl)ccc23)c1O . Output Ragweed plant response rating (0 to 100 scale): 0

Input CCO/N=C(/c1c(O)cnn(C)c1=O)c1ccc(F)c2ccccc12 . Output Ragweed plant response rating (0 to 100 scale): 70

Input CO/N=C(\c1ccc(F)c(Cl)c1)c1c(O)c(C)nn(C)c1=O . Output Ragweed plant response rating (0 to 100 scale): 10

Input CON=C(c1ccc(F)c(Br)c1)c1c(O)c(C)nn(C)c1=O [Compound 176] . Output Ragweed plant response rating (0 to 100 scale): 70

Input CON=C(c1ccc(F)c(Br)c1)c1c(O)c(C)nn(C)c1=O [Compound 177] . Output Ragweed plant response rating (0 to 100 scale): 60

Input C#CCON=C(c1ccc(Cl)c(Cl)c1)c1c(O)c(C)nn(C)c1=O . Output Ragweed plant response rating (0 to 100 scale): 40

Input CCO/N=C(\c1cc(Cl)cc(Cl)c1Cl)c1c(O)c(C)nn(C)c1=O . Output Ragweed plant response rating (0 to 100 scale): 90

Input Cc1nn(C)c(=O)c(/C(=N/OC(C)C)c2cccc3cc(Cl)ccc23)c1O . Output Ragweed plant response rating (0 to 100 scale): 70

Input CO/N=C(/c1ccc(F)c(Cl)c1)c1c(O)c(C)nn(C)c1=O . Output Ragweed plant response rating (0 to 100 scale): 10

Input CO/N=C(/c1ccc(Cl)c(Cl)c1)c1c(O)c(C)nn(C)c1=O . Output Ragweed plant response rating (0 to 100 scale): 40

Input CCO/N=C(\c1c(O)c(C)nn(C)c1=O)c1cccc2cc(Cl)ccc12 . Output Ragweed plant response rating (0 to 100 scale): 100

Input CON=C(c1cc(Cl)cc(Cl)c1F)c1c(O)c(C)nn(C)c1=O [Compound 153] . Output Ragweed plant response rating (0 to 100 scale): 100

Input CO/N=C(/c1cc(Cl)cc(OC)c1)c1c(O)c(C)nn(C)c1=O . Output Ragweed plant response rating (0 to 100 scale): 100

Input CO/N=C(\c1c(O)c(Cl)nn(C)c1=O)c1ccc(F)c2ccccc12 . Output Ragweed plant response rating (0 to 100 scale): 100

Input CON=C(c1cc(Cl)cc(Cl)c1F)c1c(O)c(C)nn(C)c1=O [Compound 299] . Output Ragweed plant response rating (0 to 100 scale): 100

Input CO/N=C(/c1c(O)c(C)nn(C)c1=O)c1cc(SC)cc2ccccc12 . Output Ragweed plant response rating (0 to 100 scale): 10

Input CCON=C(c1cc(Cl)cc(Br)c1)c1c(O)c(C)nn(C)c1=O . Output Ragweed plant response rating (0 to 100 scale): 100

Input CO/N=C(\c1cc(Cl)c(F)c(Cl)c1)c1c(O)c(C)nn(C)c1=O . Output Ragweed plant response rating (0 to 100 scale): 50

###

Would you mind telling me the reported Corn plant response rating (0 to 100 scale) of each entry?
Tested on: corn (Zea mays)
Assay: Test C postemergence, visual plant response rating
Type: in vivo
Conditions: Postemergence, 31 g ai/ha
Provide a numeric answer; units are not to be included.

Input C#CCO/N=C(/c1c(O)c(Cl)nn(C)c1=O)c1ccc(F)c2ccccc12 [Compound 205] . Output Corn plant response rating (0 to 100 scale): 0

Input CON=C(c1ccc(F)c(Br)c1)c1c(O)c(C)nn(C)c1=O [Compound 177] . Output Corn plant response rating (0 to 100 scale): 0

Input CO/N=C(\c1c(O)cnn(C)c1=O)c1ccc(F)c2ccccc12 [Compound 303] . Output Corn plant response rating (0 to 100 scale): 0

Input CON=C(c1cc(Cl)cc(Cl)c1Cl)c1c(O)c(C)nn(C)c1=O [Compound 213] . Output Corn plant response rating (0 to 100 scale): 20

Input C#CCON=C(c1cccc(OCC(F)(F)F)c1)c1c(O)c(C)nn(C)c1=O [Compound 197] . Output Corn plant response rating (0 to 100 scale): 0

Input C#CCO/N=C(/c1cccc(Br)c1)c1c(O)c(C)nn(C)c1=O [Compound 277] . Output Corn plant response rating (0 to 100 scale): 10

Input CO/N=C(\c1ccc(Cl)c(Cl)c1)c1c(O)c(C)nn(C)c1=O [Compound 217] . Output Corn plant response rating (0 to 100 scale): 0

Input CON=C(c1cccc(OC(F)F)c1)c1c(O)c(C)nn(C)c1=O [Compound 202] . Output Corn plant response rating (0 to 100 scale): 0

Input CO/N=C(/c1ccc(Cl)c(Cl)c1)c1c(O)c(C)nn(C)c1=O [Compound 216] . Output Corn plant response rating (0 to 100 scale): 0
